Field: Max (maximum inhibition observed at concentrations tested). Provide a value for each of the molecules that follow.
Test system: affinity purified β2GPI-dependent antiphospholipid antibody
assay-name: Competitive inhibition ELISA: recombinant β2GPI proteins compete for antibody binding to coated full length recombinant β2GPI
Design: species or system human
test-conditions: Ab 7015

molecule	assay-result
1234-: recombinant β2GPI deletion mutant with domains 1, 2, 3, 4 (protein) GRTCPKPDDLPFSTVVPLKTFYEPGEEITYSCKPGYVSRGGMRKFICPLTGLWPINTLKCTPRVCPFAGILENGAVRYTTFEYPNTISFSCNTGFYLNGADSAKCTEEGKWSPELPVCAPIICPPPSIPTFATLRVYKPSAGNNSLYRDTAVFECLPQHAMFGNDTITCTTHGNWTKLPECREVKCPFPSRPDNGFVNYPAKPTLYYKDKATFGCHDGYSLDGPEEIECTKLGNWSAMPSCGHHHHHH	50%
1----: recombinant β2GPI protein with domain 1 only (SEQ ID NO:4 region), His6 tail (protein) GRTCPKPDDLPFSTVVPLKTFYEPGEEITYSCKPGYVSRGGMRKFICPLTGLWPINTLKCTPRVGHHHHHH	90%
---45: recombinant β2GPI deletion mutant with domains 4, 5 (protein) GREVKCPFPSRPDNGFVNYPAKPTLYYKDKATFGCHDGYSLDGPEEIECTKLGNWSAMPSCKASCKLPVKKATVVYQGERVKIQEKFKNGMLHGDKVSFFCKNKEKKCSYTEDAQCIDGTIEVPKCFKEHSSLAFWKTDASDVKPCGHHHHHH	10%

*Q* # query: Max (maximum inhibition observed at concentrations tested) of entry recombinant β2GPI domain 5 with GlyHis6 (----5) (protein) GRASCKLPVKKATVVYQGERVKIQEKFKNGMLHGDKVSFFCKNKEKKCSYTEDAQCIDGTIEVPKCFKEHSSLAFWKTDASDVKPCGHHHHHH
*A* 10%

Cited source for all entries: patent US6858210B1
